Biological target: T1, human CDH6 on cells (human, UniProt P55285 54-790)
T1 sequence: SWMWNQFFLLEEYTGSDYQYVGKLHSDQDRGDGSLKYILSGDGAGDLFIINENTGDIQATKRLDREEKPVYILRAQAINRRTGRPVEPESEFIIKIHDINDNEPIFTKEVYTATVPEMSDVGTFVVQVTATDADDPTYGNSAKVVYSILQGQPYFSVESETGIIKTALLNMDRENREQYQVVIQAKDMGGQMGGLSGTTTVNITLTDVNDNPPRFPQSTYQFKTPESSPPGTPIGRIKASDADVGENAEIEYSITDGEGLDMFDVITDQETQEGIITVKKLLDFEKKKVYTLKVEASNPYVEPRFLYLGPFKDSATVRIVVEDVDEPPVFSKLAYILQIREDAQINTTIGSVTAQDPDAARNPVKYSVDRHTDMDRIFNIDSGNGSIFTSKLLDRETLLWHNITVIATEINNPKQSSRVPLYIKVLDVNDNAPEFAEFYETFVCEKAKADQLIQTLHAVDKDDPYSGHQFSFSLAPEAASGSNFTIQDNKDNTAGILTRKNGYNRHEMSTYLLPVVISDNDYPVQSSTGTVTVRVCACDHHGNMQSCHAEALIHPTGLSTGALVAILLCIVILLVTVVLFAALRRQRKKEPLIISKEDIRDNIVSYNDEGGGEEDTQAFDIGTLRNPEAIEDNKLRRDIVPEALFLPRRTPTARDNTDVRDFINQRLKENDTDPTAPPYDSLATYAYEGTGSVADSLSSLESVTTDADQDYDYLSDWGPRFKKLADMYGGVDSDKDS
Assay: cell-based or functional assay
endpointName: percent inhibition at 1.22 nM ADC, JHOS4 cells
Record the result as number plus unit.

**Q:** Which percent inhibition at 1.22 nM ADC, JHOS4 cells value is on record for NOV0672-SMCC-DM1 (antibody, human IgG1, lambda, V domains shown, SMCC-DM1 on primary amines, sites not stated) VH: QVQLLESGGGLVQPGGSLRLSCAASGFTFNTYGIHWVRQAPGKGLEWVSYIHYSGSSTYYADSVKGRFTISRDNSKNTLYLQMNSLRAEDTAVYYCARHAYGYMDFWGQGTLVTVSS VL: DIALTQPASVSGSPGQSITISCTGTSSDVGAYNYVSWYQQHPGKAPKLMIYGVSKRPSGVSNRFSGSKSGNTASLTISGLQAEDEADYYCQSYDHLLHVVFGGGTKLTVLG ?
**A:** -23%

**Q:** Which percent inhibition at 1.22 nM ADC, JHOS4 cells value is on record for NOV0689-SMCC-DM1 (antibody, human IgG1, lambda, V domains shown, SMCC-DM1 on primary amines, sites not stated) VH: QVQLLESGGGLVQPGGSLRLSCAASGFTFSSFAMNWVRQAPGKGLEWVSVISSSGSNTNYADSVKGRFTISRDNSKNTLYLQMNSLRAEDTAVYYCARPSYFQAMDYWGQGTLVTVSS VL: DIVLTQPPSVSGAPGQRVTISCSGSSSNIGSNFVSWYQQLPGTAPKLLIYDNSNRPSGVPDRFSGSKSGTSASLAITGLQAEDEADYYCSSYDSFDHSWVFGGGTKLTVLG ?
**A:** 3.63%

**Q:** Which percent inhibition at 1.22 nM ADC, JHOS4 cells value is on record for NOV0719-SMCC-DM1 (antibody, human IgG1, kappa, V domains shown, SMCC-DM1 on primary amines, sites not stated) VH: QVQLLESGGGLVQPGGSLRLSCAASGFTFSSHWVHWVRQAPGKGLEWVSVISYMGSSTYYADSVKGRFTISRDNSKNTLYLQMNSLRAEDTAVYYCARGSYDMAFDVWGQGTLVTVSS VL: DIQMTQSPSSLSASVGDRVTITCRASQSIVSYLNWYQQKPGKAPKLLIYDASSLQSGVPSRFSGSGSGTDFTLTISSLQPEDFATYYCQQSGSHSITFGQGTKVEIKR ?
**A:** 27.2%

**Q:** Which percent inhibition at 1.22 nM ADC, JHOS4 cells value is on record for NOV0695-SMCC-DM1 (antibody, human IgG1, kappa, V domains shown, SMCC-DM1 on primary amines, sites not stated) VH: QVQLQQSGPGLVKPSQTLSLTCAISGDSVSSNSAAWNWIRQSPSRGLEWLGRIYYRSKWYNDYAVSVKSRITINPDTSKNQFSLQLNSVTPEDTAVYYCARERSYRDYFDYWGQGTLVTVSS VL: DIQMTQSPSSLSASVGDRVTITCRASQGIFTYLNWYQQKPGKAPKLLISAASTLQSGVPSRFSGSGSGTDFTLTISSLQPEDFATYYCQQYYSTSLTFGQGTKVEIKR ?
**A:** 66.9%

**Q:** Which percent inhibition at 1.22 nM ADC, JHOS4 cells value is on record for NOV0674-SMCC-DM1 (antibody, human IgG1, lambda, V domains shown, SMCC-DM1 on primary amines, sites not stated) VH: QVQLLESGGGLVQPGGSLRLSCAASGFTFSSYAMTWVRQAPGKGLEWVSGISGGGSNTYYADSVKGRFTISRDNSKNTLYLQMNSLRAEDTAVYYCARGGGQYFDYWGQGTLVTVSS VL: DIVLTQPPSVSGAPGQRVTISCSGSSSNIGYNYVSWYQQLPGTAPKLLIYRDNQRPSGVPDRFSGSKSGTSASLAITGLQAEDEADYYCAAWTSGSIGWVFGGGTKLTVLG ?
**A:** -11.9%
